log10(Activity) reference
# Tested on: A549
# test_protocol: Cytotoxicity against human A549 cells by sulforhodamine B assay
# Format: functional
property_name: log10(Activity) (log10 of the value in µg/mL)

# compound_structure, numeric_result
rows = [
    ("COc1cc2c(cc1OC)-c1cc3ccccc3c(=O)n1C2", 1.57),
    ("O=c1[nH]c(-c2ccccc2CO)cc2ccccc12", 0.84),
    ("Cc1ccc2c(=O)[nH]c(-c3ccccc3CO)cc2c1", 0.56),
    ("COc1cc(CO)c(-c2cc3ccccc3c(=O)[nH]2)cc1OC", 0.86),
    ("COCOCc1cc(OC)ccc1-c1cc2ccccc2c(=O)[nH]1", 1.52),
    ("COc1cc(CO)c(-c2cc3cc(C)ccc3c(=O)[nH]2)cc1OC", 1.34),
    ("O=c1c2ccccc2cc2n1Cc1ccccc1-2", 0.57),
    ("COc1ccc2c(c1)Cn1c-2cc2ccccc2c1=O", 0.97),
    ("COc1ccc(COCc2ccccc2-c2cc3ccc(C)cc3c(=O)[nH]2)cc1", 0.52),
    ("COc1ccc(COCc2ccccc2-c2cc3ccccc3c(=O)[nH]2)cc1", 1.42),
    ("COCOCc1cc(OC)ccc1-c1cc2ccc(C)cc2c(=O)[nH]1", 1.82),
    ("COc1ccc2c(c1)Cn1c-2cc2cc(C)ccc2c1=O", 0.77),
]

Where these numbers come from: ChEMBL document CHEMBL1138593
